Entry source: patent US20240208992A1

Biological target: human F508del-CFTR (Homo sapiens, UniProt P13569, DEL508-508)
Sequence (P13569 with tags, fused parts or gaps DEL508-508): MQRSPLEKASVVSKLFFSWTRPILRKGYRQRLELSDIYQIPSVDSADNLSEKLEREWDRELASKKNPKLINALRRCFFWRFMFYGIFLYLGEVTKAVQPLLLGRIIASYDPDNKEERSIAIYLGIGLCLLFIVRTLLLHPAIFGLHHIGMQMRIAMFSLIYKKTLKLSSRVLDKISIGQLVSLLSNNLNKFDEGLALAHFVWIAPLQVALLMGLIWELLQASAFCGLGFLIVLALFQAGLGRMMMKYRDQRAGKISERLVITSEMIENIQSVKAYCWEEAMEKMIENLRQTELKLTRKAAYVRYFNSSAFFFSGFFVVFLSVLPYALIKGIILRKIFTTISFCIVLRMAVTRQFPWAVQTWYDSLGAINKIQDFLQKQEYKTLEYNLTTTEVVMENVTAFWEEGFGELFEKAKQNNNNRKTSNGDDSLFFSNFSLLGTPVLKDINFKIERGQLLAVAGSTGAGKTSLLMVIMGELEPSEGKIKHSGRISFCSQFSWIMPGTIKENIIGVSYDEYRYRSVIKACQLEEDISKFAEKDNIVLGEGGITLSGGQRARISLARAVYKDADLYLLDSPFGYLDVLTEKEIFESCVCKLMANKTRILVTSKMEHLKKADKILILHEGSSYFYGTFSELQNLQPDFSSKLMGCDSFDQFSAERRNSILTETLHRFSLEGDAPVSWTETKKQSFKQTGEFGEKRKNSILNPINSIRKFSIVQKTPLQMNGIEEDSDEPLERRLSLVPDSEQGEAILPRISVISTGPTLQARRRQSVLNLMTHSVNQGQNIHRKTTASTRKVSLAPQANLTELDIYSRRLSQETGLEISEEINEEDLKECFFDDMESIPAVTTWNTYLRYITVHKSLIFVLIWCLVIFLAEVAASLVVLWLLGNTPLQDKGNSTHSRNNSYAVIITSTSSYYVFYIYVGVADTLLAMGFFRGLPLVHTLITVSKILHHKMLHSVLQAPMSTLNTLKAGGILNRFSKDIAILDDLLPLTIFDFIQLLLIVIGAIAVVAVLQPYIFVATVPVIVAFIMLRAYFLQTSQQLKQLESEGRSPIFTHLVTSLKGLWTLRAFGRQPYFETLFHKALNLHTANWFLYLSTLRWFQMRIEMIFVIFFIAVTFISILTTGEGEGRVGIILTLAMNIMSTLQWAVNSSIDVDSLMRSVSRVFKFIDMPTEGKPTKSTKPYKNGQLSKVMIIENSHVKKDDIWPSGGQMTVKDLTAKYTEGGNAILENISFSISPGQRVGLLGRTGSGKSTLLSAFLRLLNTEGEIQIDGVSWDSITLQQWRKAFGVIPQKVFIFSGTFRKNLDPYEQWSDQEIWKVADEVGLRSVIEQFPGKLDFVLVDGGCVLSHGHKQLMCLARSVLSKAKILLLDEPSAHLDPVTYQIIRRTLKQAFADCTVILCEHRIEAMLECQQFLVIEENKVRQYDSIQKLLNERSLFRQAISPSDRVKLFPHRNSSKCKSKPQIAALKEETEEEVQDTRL
Test: F508del-CFTR cell surface expression (corrector activity), DiscoveRx ß-galactosidase complementation chemiluminescence assay in recombinant U2OS cell line;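 note: U2OS cells co-expressing ProLink-tagged F508del-CFTR and a membrane-anchored enzyme acceptor, where more surface CFTR restores β-galactosidase activity measured by chemiluminescence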
Conditions: U2OS, in relation to Emax of corrector lumacaftor (=100%); arithmetic mean values
// returns false unless Emax is strictly below 300%, in which case true

- Input smiles: "COc1nccc2c1C(=O)N[C@H](C(=O)NCCc1noc(C3CC3)n1)CC(=O)N(C)[C@@H](CC(C)C)C(=O)N(C)[C@@H](CCc1nc(-c3ccccc3)no1)C(=O)N[C@H](Cc1ccccc1)CO2"
  Classification: "true"
- Input smiles: "Cc1cc(CCNC(=O)[C@@H]2CC(=O)N(C)[C@@H](CC(C)C)C(=O)N(C)C3(CC3)C(=O)N[C@H](Cc3ccccc3)COc3nc4ccccn4c3C(=O)N2)on1"
  Classification: "true"
- Input smiles: "COc1cccc(CCNC(=O)[C@@H]2CC(=O)N(C)[C@@H](CC(C)C)C(=O)N3CCCC[C@@H]3C(=O)N[C@H](Cc3ccccc3)COc3ccc4nc(C)oc4c3C(=O)N2)c1"
  Classification: "false"
- Input smiles: "COc1cc(CCNC(=O)[C@@H]2CC(=O)N(C)[C@@H](CC(C)C)C(=O)N(C)[C@H](Cc3nc(-c4ccc(F)cn4)no3)C(=O)N[C@H](Cc3ccccc3)COc3ccnc(OC)c3C(=O)N2)on1"
  Classification: "false"
- Input smiles: "COc1cccc(CCNC(=O)[C@@H]2CC(=O)N(C)[C@@H](CC(C)C)C(=O)N3CCN(CC(C)C)C[C@@H]3C(=O)N[C@H](Cc3ccccc3)COc3ccc4nc(C)oc4c3C(=O)N2)c1"
  Classification: "false"
- Input smiles: "COc1cccc(CCNC(=O)[C@@H]2CC(=O)N(C)[C@@H](CC(C)C)C(=O)N3CCN(S(=O)(=O)CCCN4CCOCC4)C[C@@H]3C(=O)N[C@H](Cc3ccccc3)COc3ccc4ccccc4c3C(=O)N2)c1"
  Classification: "true"
- Input smiles: "Cc1cc(CCNC(=O)[C@@H]2CC(=O)N(C)[C@@H](CC(C)C)C(=O)N3CCCC[C@@H]3C(=O)N[C@H](Cc3ccccc3)COc3ccc4ncccc4c3C(=O)N2)on1"
  Classification: "false"
- Input smiles: "COc1cccc(CCNC(=O)[C@@H]2CC(=O)N(C)[C@@H](CC(C)C)C(=O)N(C)C3(CC3)C(=O)N[C@H](Cc3ccccc3)COc3ccc4ncccc4c3C(=O)N2)c1"
  Classification: "false"
- Input smiles: "COc1cc(CCNC(=O)[C@@H]2CC(=O)N(C)[C@@H](CC(C)C)C(=O)N(C)[C@H](Cc3nc(-c4ccc(F)cn4)no3)C(=O)N[C@H](Cc3ccccc3)COc3ccc4ncc(F)cc4c3C(=O)N2)on1"
  Classification: "false"
